experiment: self-splicing fitness, log relative to wild type (ln ratio); higher = more splicing; Tetrahymena group I intron in knt gene, E. coli kanamycin selection, DiMSum; sequences stand for … in CUCUCU…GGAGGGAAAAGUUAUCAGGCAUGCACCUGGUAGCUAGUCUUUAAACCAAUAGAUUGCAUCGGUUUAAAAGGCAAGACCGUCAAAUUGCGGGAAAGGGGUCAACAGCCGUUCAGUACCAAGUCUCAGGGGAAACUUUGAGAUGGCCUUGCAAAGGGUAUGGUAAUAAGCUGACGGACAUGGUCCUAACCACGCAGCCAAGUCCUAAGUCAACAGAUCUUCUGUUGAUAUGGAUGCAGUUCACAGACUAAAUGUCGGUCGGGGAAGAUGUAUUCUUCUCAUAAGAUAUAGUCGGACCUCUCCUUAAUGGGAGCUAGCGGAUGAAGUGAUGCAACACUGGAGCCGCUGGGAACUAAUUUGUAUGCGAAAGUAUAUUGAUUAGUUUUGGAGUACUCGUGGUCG; settings: 37 °C;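 also: selection with 25 µg/mL kanamycin versus none on LB agar overnight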
Rule: label 1 for self-splicing fitness (ln) not less than -2, label 0 for anything less.

# bool: self-splicing fitness (ln) of GAUUAGCAAUAUUACGUGGU >= -2 label 0

# bool: self-splicing fitness (ln) of UAGUAGCAAUAUUACGGUCG >= -2 label 1

# bool: self-splicing fitness (ln) of GUGCAGCAAUAUUACGGCCA >= -2 label 1

# bool: self-splicing fitness (ln) of CGAUAGCAAUAUUACGCUUA >= -2 label 1

# bool: self-splicing fitness (ln) of UUUUAGCAAUAUUACGGGUC >= -2 label 0

# bool: self-splicing fitness (ln) of UUGUAGCAAUAUUACGGGCG >= -2 label 1

# bool: self-splicing fitness (ln) of AAGUAGCAAUAUUACGCGUU >= -2 label 1

# bool: self-splicing fitness (ln) of GCUUAGCAAUAUUACGCACU >= -2 label 1

# bool: self-splicing fitness (ln) of ACGUAGCAAUAUUACGAAAG >= -2 label 0

# bool: self-splicing fitness (ln) of UGCGAGCAAUAUUACGCAGG >= -2 label 0

# bool: self-splicing fitness (ln) of CCACAGCAAUAUUACGUGGU >= -2 label 0

# bool: self-splicing fitness (ln) of UCUCAGCAAUAUUACGCCAA >= -2 label 0

# bool: self-splicing fitness (ln) of AUACAGCAAUAUUACGGGAC >= -2 label 1

# bool: self-splicing fitness (ln) of AUCAAGCAAUAUUACGGGGU >= -2 label 0

# bool: self-splicing fitness (ln) of AACGAGCAAUAUUACGGGUC >= -2 label 1

# bool: self-splicing fitness (ln) of CCAAAGCAAUAUUACGGGUG >= -2 label 1

# bool: self-splicing fitness (ln) of GCGCAGCAAUAUUACGCAGC >= -2 label 1

# bool: self-splicing fitness (ln) of GGUUAGCAAUAUUACGGUGG >= -2 label 1

# bool: self-splicing fitness (ln) of CACCAGCAAUAUUACGUCAU >= -2 label 0

# bool: self-splicing fitness (ln) of UCGCAGCAAUAUUACGCACA >= -2 label 1

# bool: self-splicing fitness (ln) of CCACAGCAAUAUUACGGCAG >= -2 label 1

# bool: self-splicing fitness (ln) of AUUAAGCAAUAUUACGGAGG >= -2 label 1

# bool: self-splicing fitness (ln) of GGUCAGCAAUAUUACGCUUA >= -2 label 1

# bool: self-splicing fitness (ln) of CGUGAGCAAUAUUACGUGCU >= -2 label 0

# bool: self-splicing fitness (ln) of CGGAAGCAAUAUUACGCCCA >= -2 label 1

# bool: self-splicing fitness (ln) of UCUAAGCAAUAUUACGUAUC >= -2 label 0

# bool: self-splicing fitness (ln) of UUUAAGCAAUAUUACGCGUA >= -2 label 1

# bool: self-splicing fitness (ln) of AUCCAGCAAUAUUACGCUCA >= -2 label 1

# bool: self-splicing fitness (ln) of UUCAAGCAAUAUUACGCCCG >= -2 label 1

# bool: self-splicing fitness (ln) of AAGUAGCAAUAUUACGGUAU >= -2 label 1

# bool: self-splicing fitness (ln) of ACCGAGCAAUAUUACGAGGU >= -2 label 1

# bool: self-splicing fitness (ln) of AGGCAGCAAUAUUACGGCGA >= -2 label 1

# bool: self-splicing fitness (ln) of GAUUAGCAAUAUUACGGUGC >= -2 label 1

# bool: self-splicing fitness (ln) of GAACAGCAAUAUUACGCGAU >= -2 label 0

# bool: self-splicing fitness (ln) of CGGCAGCAAUAUUACGUUCU >= -2 label 1

# bool: self-splicing fitness (ln) of UUGUAGCAAUAUUACGUUCA >= -2 label 1

# bool: self-splicing fitness (ln) of CUAUAGCAAUAUUACGUCAG >= -2 label 1

# bool: self-splicing fitness (ln) of UCAAAGCAAUAUUACGUGUA >= -2 label 1

# bool: self-splicing fitness (ln) of AAAGAGCAAUAUUACGUUGU >= -2 label 0

# bool: self-splicing fitness (ln) of CCUCAGCAAUAUUACGUAGG >= -2 label 0

# bool: self-splicing fitness (ln) of GCCUAGCAAUAUUACGGUAG >= -2 label 0

# bool: self-splicing fitness (ln) of AGUCAGCAAUAUUACGAGCU >= -2 label 1

# bool: self-splicing fitness (ln) of CCAUAGCAAUAUUACGUAAA >= -2 label 0

# bool: self-splicing fitness (ln) of CGUGAGCAAUAUUACGAGAU >= -2 label 1

# bool: self-splicing fitness (ln) of CCCUAGCAAUAUUACGUUUC >= -2 label 0

# bool: self-splicing fitness (ln) of ACAGAGCAAUAUUACGAGGG >= -2 label 0

# bool: self-splicing fitness (ln) of GAAGAGCAAUAUUACGUUCU >= -2 label 0

# bool: self-splicing fitness (ln) of UGUCAGCAAUAUUACGACGA >= -2 label 1

# bool: self-splicing fitness (ln) of CCAAAGCAAUAUUACGCUCU >= -2 label 0

# bool: self-splicing fitness (ln) of AAGCAGCAAUAUUACGGCGC >= -2 label 1

# bool: self-splicing fitness (ln) of GACCAGCAAUAUUACGCCAC >= -2 label 0

# bool: self-splicing fitness (ln) of CACGAGCAAUAUUACGCGCA >= -2 label 0

# bool: self-splicing fitness (ln) of CACGAGCAAUAUUACGGCUA >= -2 label 1

# bool: self-splicing fitness (ln) of GGCCAGCAAUAUUACGUAGG >= -2 label 1

# bool: self-splicing fitness (ln) of AUGAAGCAAUAUUACGCGAA >= -2 label 1

# bool: self-splicing fitness (ln) of AUCCAGCAAUAUUACGAGUG >= -2 label 1

# bool: self-splicing fitness (ln) of AGUCAGCAAUAUUACGGCGG >= -2 label 1

# bool: self-splicing fitness (ln) of CGGUAGCAAUAUUACGAUGC >= -2 label 1

# bool: self-splicing fitness (ln) of AGUCAGCAAUAUUACGUGAA >= -2 label 1

# bool: self-splicing fitness (ln) of UUACAGCAAUAUUACGGGUC >= -2 label 0

# bool: self-splicing fitness (ln) of CGUGAGCAAUAUUACGCGAC >= -2 label 0

# bool: self-splicing fitness (ln) of GUCUAGCAAUAUUACGUUGA >= -2 label 1

# bool: self-splicing fitness (ln) of AAUCAGCAAUAUUACGUUAA >= -2 label 1

# bool: self-splicing fitness (ln) of ACAUAGCAAUAUUACGCUCA >= -2 label 1
